Documented log10 solubility across a set of compounds
# EXPERIMENTAL DETAILS: Solubility of compound by lyophilisation solubility assay
# Assay type: physicochemical
Annotation: log10 of solubility, µg/mL basis.

Observe how each entry below is paired with its result.
Cc1cc(N2C[C@H]3CC[C@@H](C2)[C@@H]3Nc2nc3c(OCC(F)F)ccc(C(F)(F)F)n3n2)ncn1 : 1.94
Cc1nsc(N2C[C@H]3CC[C@@H](C2)[C@@H]3Nc2nc3c(OCCC(F)(F)F)cccn3n2)n1 : 0.23
Cc1cc(N2C[C@H]3CC[C@@H](C2)[C@@H]3Nc2nc3c(OCC(F)(F)C(F)(F)F)cccn3n2)on1 : 1.04
Cc1nsc(N2C[C@H]3CC[C@@H](C2)[C@@H]3Nc2nc3c(OCC(F)(F)F)cccn3n2)n1 : 2.30
Cc1cc(N2C[C@H]3CC[C@@H](C2)[C@@H]3Nc2nc3c(O[C@@H](C)C(F)(F)F)cccn3n2)sn1 : 0.80
Cc1nnc(N2C[C@H]3CC[C@@H](C2)[C@@H]3Nc2nc3c(O[C@@H](C)C(F)(F)F)ccc(C(F)(F)F)n3n2)o1 : 1.91
Cc1nnc(N2C[C@H]3CC[C@@H](C2)[C@@H]3Nc2nc3c(OC(C)C(F)(F)F)cccn3n2)o1 (some centres not stated) : 2.54
Cc1cc(N2C[C@H]3CC[C@@H](C2)[C@@H]3Nc2nc3c(OCC(F)(F)F)cccn3n2)sn1 : 1.49

Let us move to another entry and its log10 solubility.
Report measured log10 solubility; entry is Cc1nsc(N2C[C@H]3CC[C@@H](C2)[C@@H]3Nc2nc3c(OC(F)(F)F)cccn3n2)n1 2.01

###

# TARGET OR TEST SYSTEM: UniProtKB Q12809
# Sequence (Q12809 whole entry): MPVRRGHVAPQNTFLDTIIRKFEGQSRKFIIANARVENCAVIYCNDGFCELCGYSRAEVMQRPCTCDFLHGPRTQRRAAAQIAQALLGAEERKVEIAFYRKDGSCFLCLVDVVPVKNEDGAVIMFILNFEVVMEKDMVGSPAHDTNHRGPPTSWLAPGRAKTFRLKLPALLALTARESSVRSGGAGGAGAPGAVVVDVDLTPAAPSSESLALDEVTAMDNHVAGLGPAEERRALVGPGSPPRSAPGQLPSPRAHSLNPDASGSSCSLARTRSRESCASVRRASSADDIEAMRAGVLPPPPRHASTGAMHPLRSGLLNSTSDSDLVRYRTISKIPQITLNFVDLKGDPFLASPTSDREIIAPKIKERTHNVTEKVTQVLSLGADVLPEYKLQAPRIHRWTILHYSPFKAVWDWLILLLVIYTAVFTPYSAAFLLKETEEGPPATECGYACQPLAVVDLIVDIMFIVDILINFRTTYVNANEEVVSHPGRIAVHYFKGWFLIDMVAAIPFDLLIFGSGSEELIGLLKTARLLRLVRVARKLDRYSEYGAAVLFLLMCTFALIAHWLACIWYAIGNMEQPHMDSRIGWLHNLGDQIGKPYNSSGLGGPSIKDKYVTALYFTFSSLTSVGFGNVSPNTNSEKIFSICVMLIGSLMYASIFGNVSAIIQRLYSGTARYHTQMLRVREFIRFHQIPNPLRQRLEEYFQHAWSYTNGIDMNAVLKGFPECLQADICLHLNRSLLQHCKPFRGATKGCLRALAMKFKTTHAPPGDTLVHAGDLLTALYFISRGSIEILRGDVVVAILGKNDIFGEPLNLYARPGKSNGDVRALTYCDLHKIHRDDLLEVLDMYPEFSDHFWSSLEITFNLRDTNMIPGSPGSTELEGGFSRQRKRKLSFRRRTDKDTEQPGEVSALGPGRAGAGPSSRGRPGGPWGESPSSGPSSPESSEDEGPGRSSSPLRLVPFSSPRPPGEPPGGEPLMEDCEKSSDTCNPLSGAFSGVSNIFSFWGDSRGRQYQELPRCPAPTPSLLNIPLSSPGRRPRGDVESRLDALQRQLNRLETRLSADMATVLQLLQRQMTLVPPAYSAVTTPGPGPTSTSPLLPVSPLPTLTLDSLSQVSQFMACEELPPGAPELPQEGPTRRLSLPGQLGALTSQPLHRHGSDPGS
# EXPERIMENTAL DETAILS: Inhibition of human ERG
Documented IC50 across a set of compounds

Cc1nsc(N2C[C@H]3CC[C@@H](C2)[C@@H]3Nc2nc3c(OCC(F)(F)F)cccn3n2)n1 : > 10 µM
Cc1nsc(N2CC3CCC(C2)C3Nc2nc3c(-c4ccc(F)c(F)c4F)cccn3n2)n1 (stereo not drawn) : < 2 µM

Let us move to another entry and its IC50.
Report measured IC50; entry is Cc1nnc(N2C[C@H]3CC[C@@H](C2)[C@@H]3Nc2nc3c(O[C@@H](C)C(F)(F)F)ccc(C(F)(F)F)n3n2)o1 > 20 µM

###

Documented solubility across a set of compounds
# EXPERIMENTAL DETAILS: Solubility of compound by lyophilisation solubility assay
# Type: physicochemical

Observe how each entry below is paired with its result.
Cc1nsc(N2C[C@H]3CC[C@@H](C2)[C@@H]3Nc2nc3c(OCCCC(F)(F)F)cccn3n2)n1 : 0.2 to 1 µg/mL
Cc1nsc(N2CC3CCC(C2)C3Nc2nc3c(-c4ccc(F)c(F)c4F)cccn3n2)n1 (stereo not drawn) : 3.8 to 3.86 µg/mL

Report measured solubility; entry is Cc1noc(N2C[C@H]3CC[C@@H](C2)[C@@H]3Nc2nc3c(OCC(F)(F)F)cccn3n2)n1 55 to 265 µg/mL

FYI, the data here is from ChEMBL document CHEMBL4619803.
